# System: MV4-11 human acute myeloid leukemia cell with FLT3-ITD mutation
# assay_overview: MV4-11 cell proliferation assay (CellTiter 96)
# Type: cell-based
# measurement_conditions: Homo sapiens, MV4-11, 72 h, MV4-11 cells, 72 hours treatment, CellTiter96; read-out: anti-proliferation activity MV4-11 (FLT3-ITD), IC50 ranking
Listed here: items and their measured IC50.

Solved cases (5 shown):
>>> reading("CN(c1ccc(-c2cc3c(s2)Cc2c(-c4ccc5cnn(C)c5c4)n[nH]c2-3)cc1)C1CCOCC1")
"100 to 300 nM"
>>> reading("Cn1ncc2ccc(-c3n[nH]c4c3Cc3sc(-c5ccc(CC6CCOCC6)cc5)cc3-4)cc21")
"100 to 300 nM"
>>> reading("CC(c1ccc(-c2cc3c(s2)Cc2c(-c4ccc5cnn(C)c5c4)n[nH]c2-3)cc1)N1CCOCC1 (stereo not drawn)")
"< 30 nM"
>>> reading("C[C@@H]1CN(Cc2ccc(-c3cc4c(s3)Cc3c(-c5ccc6cnn(C)c6c5)n[nH]c3-4)cc2)C[C@H](C)O1")
"< 30 nM"
>>> reading("COc1ccc(-c2cc3c(s2)Cc2c(-c4ccc5cn[nH]c5c4)n[nH]c2-3)cn1")
"30 to 100 nM"

The compound listed as CN1CCN(Cc2ccc(-c3cc4c(s3)Cc3c(-c5ccc6cnn(C)c6c5)n[nH]c3-4)cc2)CC1 has a reported IC50 of < 30 nM

The compound listed as Cn1ncc2ccc(-c3n[nH]c4c3Cc3sc(-c5cccc(OCCN6CCOCC6)c5)cc3-4)cc21 has a reported IC50 of 30 to 100 nM

The compound listed as Cn1ncc2ccc(-c3n[nH]c4c3Cc3sc(-c5ccc(CN6CCOCC6)nc5)cc3-4)cc21 has a reported IC50 of < 30 nM

The compound listed as Cn1ncc2ccc(-c3n[nH]c4c3Cc3sc(-c5ccc(CN6CCOCC6)cn5)cc3-4)cc21 has a reported IC50 of < 30 nM

The compound listed as Cn1ncc2ccc(-c3n[nH]c4c3Cc3sc(N5CCOCC5)cc3-4)cc21 has a reported IC50 of < 30 nM

The compound listed as CC1C(=O)N(C)CCN1Cc1ccc(-c2cc3c(s2)Cc2c(-c4ccc5cnn(C)c5c4)n[nH]c2-3)cc1 (stereo not drawn) has a reported IC50 of < 30 nM

The compound listed as Cn1ncc2ccc(-c3n[nH]c4c3Cc3sc(-c5ccc(CN6CCOCC6)s5)cc3-4)cc21 has a reported IC50 of < 30 nM

The compound listed as Cn1ncc2ccc(-c3n[nH]c4c3Cc3sc(-c5ccc(C(=O)N6CCCC6)cc5)cc3-4)cc21 has a reported IC50 of < 30 nM

The compound listed as COc1ccc(-c2cc3c(s2)Cc2c(-c4ccc5[nH]ncc5c4)n[nH]c2-3)cn1 has a reported IC50 of 30 to 100 nM

The compound listed as C[C@@H]1CN(Cc2cccc(-c3cc4c(s3)Cc3c(-c5ccc6cnn(C)c6c5)n[nH]c3-4)c2)C[C@H](C)O1 has a reported IC50 of 30 to 100 nM

###

# System: MV4-11 human acute myeloid leukemia cell with FLT3-ITD mutation
# assay_overview: MV4-11 cell proliferation assay (CellTiter 96)
# Type: cell-based
# measurement_conditions: Homo sapiens, MV4-11, 72 h, MV4-11 cells, 72 hours treatment, CellTiter96; read-out: anti-proliferation activity MV4-11 (FLT3-ITD), IC50 ranking
Listed here: items and their measured IC50.

>>> reading("Cn1ncc2ccc(-c3n[nH]c4c3Cc3sc(-c5ccc(C=C6CCOCC6)cc5)cc3-4)cc21")
"300 to 1000 nM"
>>> reading("CC(C)n1ncc2ccc(-c3n[nH]c4c3Cc3sc(-c5ccc(CN6CCOCC6)cc5)cc3-4)cc21")
"30 to 100 nM"

The compound listed as COc1cc(-c2cc3c(s2)Cc2c(-c4ccc5cnn(C)c5c4)n[nH]c2-3)ccc1C(=O)N1CCOCC1 has a reported IC50 of 30 to 100 nM

The compound listed as Cn1ncc2ccc(-c3n[nH]c4c3Cc3sc(-c5cc(C(=O)N6CCOCC6)ccn5)cc3-4)cc21 has a reported IC50 of < 30 nM

###

# assay_system: FLT3-D835Y mutant kinase (Homo sapiens, UniProt P36888, D835Y)
# Construct: purchased SignalChem
# assay_overview: FLT3-D835Y mutant kinase assay (AlphaScreen)
# Format: biochemical
# measurement_conditions: read-out: Ranking of IC50 values, FLT3-D835Y
# Procedure: Inhibition of FLT3-D835Y mutant kinase activity by a test compound disclosed herein was estimated by AlphaScreen (PerkinElmer). […] Analysis of resulting product using an AlphaScreen kit and counted with Enspire Alpha (PerkinElmer). […] The IC50 values of inhibitors were determined after carrying out assays with each compound at serially diluted concentrations in duplication. The results were analyzed using linear regression software (GraphPad Prism 5; GraphPad Software Inc.)
assay_metric: IC50

Solved cases (6 shown):
>>> reading("Cn1ncc2ccc(-c3n[nH]c4c3Cc3sc(-c5cc(C(=O)N6CCOCC6)ccn5)cc3-4)cc21")
"1 to 10 nM"
>>> reading("Cn1ncc2ccc(-c3n[nH]c4c3Cc3sc(-c5ccc(CN6CCOCC6)cc5)cc3-4)cc21")
"1 to 10 nM"
>>> reading("Cn1ncc2ccc(-c3n[nH]c4c3Cc3sc(-c5ccc(NC6CCOCC6)cc5)cc3-4)cc21")
"1 to 10 nM"
>>> reading("Cn1ncc2ccc(-c3n[nH]c4c3Cc3sc(N5CCOCC5=O)cc3-4)cc21")
"< 1 nM"
>>> reading("Cn1ncc2ccc(-c3n[nH]c4c3Cc3sc(-c5ccc(CN6CCCOCC6)cc5)cc3-4)cc21")
"< 1 nM"
>>> reading("COc1cc(-c2cc3c(s2)Cc2c(-c4ccc5cnn(C)c5c4)n[nH]c2-3)ccc1C(=O)N1CCOCC1")
"1 to 10 nM"

Item Cn1ncc2ccc(-c3n[nH]c4c3Cc3sc(-c5ccc(CC6CCOCC6)cc5)cc3-4)cc21 ; assay system FLT3-D835Y mutant kinase (Homo sapiens, UniProt P36888, D835Y); IC50 reported as 1 to 10 nM

Item Cn1nnc2ccc(-c3n[nH]c4c3Cc3sc(-c5ccc(CN6CCOCC6)cc5)cc3-4)cc21 ; assay system FLT3-D835Y mutant kinase (Homo sapiens, UniProt P36888, D835Y); IC50 reported as 1 to 10 nM

###

# assay_system: FLT3 kinase (Homo sapiens, UniProt P36888)
# Construct: purchased SignalChem
# Sequence (P36888 27-993): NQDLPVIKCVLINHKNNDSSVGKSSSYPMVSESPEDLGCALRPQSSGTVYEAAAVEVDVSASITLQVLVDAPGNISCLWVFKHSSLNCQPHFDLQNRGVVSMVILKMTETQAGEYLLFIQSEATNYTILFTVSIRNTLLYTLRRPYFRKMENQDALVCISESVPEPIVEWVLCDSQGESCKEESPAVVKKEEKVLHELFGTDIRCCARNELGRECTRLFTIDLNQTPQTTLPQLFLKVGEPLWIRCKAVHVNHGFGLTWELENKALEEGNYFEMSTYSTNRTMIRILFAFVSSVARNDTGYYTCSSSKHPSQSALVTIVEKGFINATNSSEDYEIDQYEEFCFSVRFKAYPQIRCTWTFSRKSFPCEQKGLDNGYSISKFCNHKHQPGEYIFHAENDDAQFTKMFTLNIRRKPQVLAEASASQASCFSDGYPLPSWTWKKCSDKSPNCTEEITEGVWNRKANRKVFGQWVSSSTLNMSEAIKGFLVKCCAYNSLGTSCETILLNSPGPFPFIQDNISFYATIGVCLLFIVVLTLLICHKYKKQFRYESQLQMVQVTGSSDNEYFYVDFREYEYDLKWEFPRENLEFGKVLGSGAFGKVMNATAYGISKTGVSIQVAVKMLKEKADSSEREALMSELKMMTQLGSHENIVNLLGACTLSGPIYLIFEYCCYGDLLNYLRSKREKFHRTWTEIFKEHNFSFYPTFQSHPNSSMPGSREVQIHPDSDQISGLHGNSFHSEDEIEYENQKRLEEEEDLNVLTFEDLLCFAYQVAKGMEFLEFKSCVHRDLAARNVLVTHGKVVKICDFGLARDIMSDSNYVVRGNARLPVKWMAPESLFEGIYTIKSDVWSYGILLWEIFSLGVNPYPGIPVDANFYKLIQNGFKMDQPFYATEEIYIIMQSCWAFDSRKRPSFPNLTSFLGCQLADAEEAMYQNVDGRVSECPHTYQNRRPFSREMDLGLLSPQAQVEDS
# assay_overview: FLT3 kinase assay (AlphaScreen)
# Assay type: biochemical
# measurement_conditions: read-out: Ranking of IC50 values, FLT3
pIC50: −log10 of the molar value.
assay_metric: pIC50

>>> reading("Cn1ncc2ccc(-c3n[nH]c4c3Cc3sc(-c5ccc(CN6CCC(N7CCOCC7)CC6)cc5)cc3-4)cc21 [Compound 80]")
"> 9.00"
>>> reading("Cn1ncc2ccc(-c3n[nH]c4c3Cc3sc(-c5ccc(C=C6CCOCC6)cc5)cc3-4)cc21 [Compound 76]")
"8.00 to 9.00"

Item Cn1ncc2ccc(-c3n[nH]c4c3Cc3sc(-c5cnc(C(=O)N6CCOCC6)nc5)cc3-4)cc21 [Compound 41] ; assay system FLT3 kinase (Homo sapiens, UniProt P36888); pIC50 reported as > 9.00

Item Cn1ncc2ccc(-c3n[nH]c4c3Cc3sc(-c5ccc(N6CCOCC6)nc5)cc3-4)cc21 [Compound 82] ; assay system FLT3 kinase (Homo sapiens, UniProt P36888); pIC50 reported as 8.00 to 9.00

Item Cn1ncc2ccc(-c3n[nH]c4c3Cc3sc(-c5ccc(C(=O)N6CCCCC6)cc5)cc3-4)cc21 [Compound 34] ; assay system FLT3 kinase (Homo sapiens, UniProt P36888); pIC50 reported as 8.00 to 9.00
